# MEASUREMENT_TARGET: human ME1 enzyme (Homo sapiens, UniProt P48163)
# PROCEDURE_TEXT: ME1 inhibition assay (diaphorase/resazurin coupled fluorescence)
# Type: biochemical
# ASSAY_SETUP: 10 μM compound concentration; read-out: Malic Enzyme 1 % inhibition (10 μM)
ENDPOINT_NAME: inhibition at 10 µM

As a guide, the following entries are already answered.
- O=C(C1CC(O)(c2ccccc2)C1)N1CCN(c2ccc(O)cn2)CC1 (stereo not drawn) [I.124]: > 90%
- O=C(c1c[nH]c2ccccc2c1=O)N1CCN(c2ccc(O)cn2)CC1 [I.54]: 70 to 89%
- O=C(CCc1ccccn1)N1CCN(c2ccc(O)cn2)CC1 [I.129]: 70 to 89%
- COc1cc(CC(=O)N2CCN(c3ccc(O)cc3)CC2)cc(OC)c1OC [I.3]: > 90%
- O=C(CNCC12CC3CC(CC(C3)C1)C2)N1CCN(c2ccc(O)cn2)CC1 [I.57]: 70 to 89%
- O=C(CC12CC3CC(CC(O)(C3)C1)C2)N1CCN(c2ccc(O)cn2)CC1 [I.56]: 50 to 69%
- N#Cc1ccc(CCC(=O)N2CCN(c3ccc(O)cn3)CC2)cc1 [I.138]: > 90%
- O=C(Cc1c[nH]c2c(F)cc(F)cc12)N1CCN(c2ccc(O)cn2)CC1 [I.167]: > 90%

Task: Find the recorded inhibition at 10 µM belonging to O=C(O)c1cccc(-c2cc(C(=O)N3CCN(c4ccc(O)cc4)CC3)ccn2)c1 [I.39] and report it.
Result: > 90%

Task: Find the recorded inhibition at 10 µM belonging to Cc1[nH]c2ccc(F)cc2c1CC(=O)N1CCN(c2ccc(O)cn2)CC1 [I.166] and report it.
Result: > 90%

Task: Find the recorded inhibition at 10 µM belonging to CN(CC(=O)N1CCN(c2ccc(O)cn2)CC1)CC12CC3CC(CC(C3)C1)C2 [I.96] and report it.
Result: 70 to 89%

###

# MEASUREMENT_TARGET: human ME1 enzyme (Homo sapiens)
# PROCEDURE_TEXT: ME1 inhibition assay (diaphorase/resazurin coupled fluorescence)
# Assay type: biochemical
# ASSAY_SETUP: 10 μM compound concentration; read-out: Malic Enzyme 1 % inhibition (10 μM)
ENDPOINT_NAME: inhibition at 10 µM

• O=C(c1ccnc(N2CCCCC2)c1)N1CCN(c2ccc(O)cc2)CC1 = > 90%
• O=C(C(=O)N1CCN(c2ccc(O)cn2)CC1)c1c[nH]c2ccc(F)cc12 = > 90%
• O=C(Cc1c[nH]c2ccc(F)cc12)N1CCN(c2ccc(O)cc2)CC1 = > 90%
• Cn1cc(CC(=O)N2CCN(c3ccc(O)cn3)CC2)c2cc(F)ccc21 = > 90%
• O=C(c1c[nH]c2ccccc12)N1CCN(c2ccc(O)cc2)CC1 = > 90%
• O=C(c1c2ccccc2nc2ccccc12)N1CCN(c2ccc(O)cn2)CC1 = > 90%
• O=C(C=C1c2ccccc2-c2ccccc21)N1CCN(c2ccc(O)cn2)CC1 = 70 to 89%
• O=C(C(O)Cc1ccccc1)N1CCN(c2ccc(O)cn2)CC1 (stereo not shown) = 50 to 69%
• O=C(CCc1cccc2ccccc12)N1CCN(c2ccc(O)cc2)CC1 = > 90%

Let us move to another entry and its inhibition at 10 µM.
Task: Find the recorded inhibition at 10 µM belonging to `O=C(Cc1c[nH]c2ccc(F)cc12)N1CCN(c2ccc(O)cn2)CC1` and report it.
Result: > 90%

###

# MEASUREMENT_TARGET: human ME2 enzyme (Homo sapiens, UniProt P23368)
# Sequence (P23368 19-584): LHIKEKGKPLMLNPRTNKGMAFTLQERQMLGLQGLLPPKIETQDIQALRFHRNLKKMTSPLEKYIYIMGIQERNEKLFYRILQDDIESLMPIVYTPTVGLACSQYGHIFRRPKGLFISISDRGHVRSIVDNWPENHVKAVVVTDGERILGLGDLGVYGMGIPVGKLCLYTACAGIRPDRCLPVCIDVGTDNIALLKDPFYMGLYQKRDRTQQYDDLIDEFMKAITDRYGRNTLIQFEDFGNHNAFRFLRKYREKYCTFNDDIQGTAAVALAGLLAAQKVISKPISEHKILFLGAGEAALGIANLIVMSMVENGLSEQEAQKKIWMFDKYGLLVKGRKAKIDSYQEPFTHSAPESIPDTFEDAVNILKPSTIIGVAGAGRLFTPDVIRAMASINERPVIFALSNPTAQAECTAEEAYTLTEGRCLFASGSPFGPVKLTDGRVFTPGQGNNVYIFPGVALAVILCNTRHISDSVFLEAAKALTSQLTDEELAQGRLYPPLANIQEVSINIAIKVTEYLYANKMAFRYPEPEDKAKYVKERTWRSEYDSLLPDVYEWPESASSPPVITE
# PROCEDURE_TEXT: ME2 inhibition assay (diaphorase/resazurin coupled fluorescence)
# Format: biochemical
# ASSAY_SETUP: 10 μM compound concentration; read-out: Malic Enzyme 2 % inhibition (10 μM)
Entries and their inhibition at 10 µM

As a guide, the following entries are already answered.
• COc1ccc(C(CC(=O)N2CCN(c3ccc(O)cn3)CC2)c2ccc(OC)cc2)cc1 = 70 to 89%
• O=C(C=C(c1ccccc1)c1ccccc1)N1CCN(c2ccc(O)cn2)CC1 = 70 to 89%
• O=C(C(c1ccc(Cl)cc1)c1ccc(Cl)cc1)N1CCN(c2ccc(O)cn2)CC1 = 50 to 69%
• O=C(C1CC(c2ccccc2)C1)N1CCN(c2ccc(O)cn2)CC1 (stereo not drawn) = > 90%

Task: Find the recorded inhibition at 10 µM belonging to `O=C(c1cn(CC2CC2)c2ccccc2c1=O)N1CCN(c2ccc(O)cn2)CC1` and report it.
Result: 70 to 89%

Task: Find the recorded inhibition at 10 µM belonging to `O=C(CCc1ccc(C(F)(F)F)cc1)N1CCN(c2ccc(O)cn2)CC1` and report it.
Result: > 90%

Task: Find the recorded inhibition at 10 µM belonging to `O=C(CCc1cccc(C(F)(F)F)c1)N1CCN(c2ccc(O)cn2)CC1` and report it.
Result: 70 to 89%

Task: Find the recorded inhibition at 10 µM belonging to `Cc1cccc(C)c1CCC(=O)N1CCN(c2ccc(O)cn2)CC1` and report it.
Result: > 90%

Task: Find the recorded inhibition at 10 µM belonging to `O=C(CCc1ccccc1C(F)(F)F)N1CCN(c2ccc(O)cn2)CC1` and report it.
Result: > 90%

###

# MEASUREMENT_TARGET: human ME2 enzyme (Homo sapiens)
# PROCEDURE_TEXT: ME2 inhibition assay (diaphorase/resazurin coupled fluorescence)
# Assay type: biochemical
# ASSAY_SETUP: 10 μM compound concentration; read-out: Malic Enzyme 2 % inhibition (10 μM)
Where a name gives a salt, the structure may show the parent alone.
Entries and their inhibition at 10 µM

As a guide, the following entries are already answered.
• O=C(Cc1ccccc1Oc1ccccc1)N1CCN(c2ccc(O)cc2)CC1 [I.49] = > 90%
• O=C(CCc1ccc(F)cc1)N1CCN(c2ccc(O)cn2)CC1 [I.126] = > 90%

Task: Find the recorded inhibition at 10 µM belonging to O=C([C@@H]1C[C@H]1c1ccccc1)N1CCN(c2ccc(O)cn2)CC1 (stereo in doubt) [I.133] and report it.
Result: > 90%

Task: Find the recorded inhibition at 10 µM belonging to O=C(CCc1cccc(F)c1)N1CCN(c2ccc(O)cn2)CC1 [I.92] and report it.
Result: > 90%

Task: Find the recorded inhibition at 10 µM belonging to O=C(Cc1c[nH]c2cc(Cl)c(Cl)cc12)N1CCN(c2ccc(O)cn2)CC1 [I.174] and report it.
Result: > 90%

Task: Find the recorded inhibition at 10 µM belonging to O=C(O)c1cccc(-c2cc(C(=O)N3CCN(c4ccc(O)cc4)CC3)cc(N3CCOCC3)n2)c1 [I.41] and report it.
Result: > 90%

Task: Find the recorded inhibition at 10 µM belonging to O=C(CCCCc1ccccc1)N1CCN(c2ccc(O)cn2)CC1 [I.68, hydrochloride] and report it.
Result: 70 to 89%

Task: Find the recorded inhibition at 10 µM belonging to O=C(Cc1cc(F)cc(F)c1)N1CCN(c2ccc(O)cc2)CC1 [I.148] and report it.
Result: > 90%

Task: Find the recorded inhibition at 10 µM belonging to COC(=O)c1ccccc1CCC(=O)N1CCN(c2ccc(O)cn2)CC1 [I.142] and report it.
Result: > 90%

Task: Find the recorded inhibition at 10 µM belonging to O=C(CC=C(c1ccccc1)c1ccccc1)N1CCN(c2ccc(O)cn2)CC1 [I.94] and report it.
Result: 70 to 89%

Task: Find the recorded inhibition at 10 µM belonging to COc1ccc(C(=CC(=O)N2CCN(c3ccc(O)cn3)CC2)c2ccc(OC)cc2)cc1 [I.84] and report it.
Result: 70 to 89%

Task: Find the recorded inhibition at 10 µM belonging to O=C(c1c[nH]c2ccccc2c1=O)N1CCN(c2ccc(O)cn2)CC1 [I.54] and report it.
Result: 50 to 69%

###

# MEASUREMENT_TARGET: human ME1 enzyme (Homo sapiens)
# Sequence (P48163 1-572): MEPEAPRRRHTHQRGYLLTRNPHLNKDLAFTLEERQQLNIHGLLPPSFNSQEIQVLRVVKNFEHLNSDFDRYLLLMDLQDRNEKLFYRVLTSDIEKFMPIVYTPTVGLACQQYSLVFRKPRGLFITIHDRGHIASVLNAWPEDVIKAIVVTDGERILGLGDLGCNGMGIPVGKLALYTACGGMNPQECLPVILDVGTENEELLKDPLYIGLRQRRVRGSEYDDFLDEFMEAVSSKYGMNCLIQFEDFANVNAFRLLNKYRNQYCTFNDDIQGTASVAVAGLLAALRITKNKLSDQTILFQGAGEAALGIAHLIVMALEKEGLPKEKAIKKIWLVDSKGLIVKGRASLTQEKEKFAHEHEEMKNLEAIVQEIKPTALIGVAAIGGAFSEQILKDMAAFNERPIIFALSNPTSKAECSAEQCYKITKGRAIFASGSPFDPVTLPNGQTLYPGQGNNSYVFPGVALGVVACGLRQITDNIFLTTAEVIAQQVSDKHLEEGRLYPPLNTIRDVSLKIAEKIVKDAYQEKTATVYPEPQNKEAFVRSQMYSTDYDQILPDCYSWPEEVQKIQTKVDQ
# PROCEDURE_TEXT: ME1 inhibition assay (diaphorase/resazurin coupled fluorescence)
# Type: biochemical
# ASSAY_SETUP: 10 μM compound concentration; read-out: Malic Enzyme 1 % inhibition (10 μM)
Counter-ions that a name gives are not always drawn.
ENDPOINT_NAME: inhibition at 10 µM

Task: Find the recorded inhibition at 10 µM belonging to CC(C)(CC(=O)N1CCN(c2ccc(O)cc2)CC1)c1ccccc1 [I.173, hydrochloride salt] and report it.
Result: 70 to 89%

Task: Find the recorded inhibition at 10 µM belonging to O=C(CCc1ccc(Cl)cc1)N1CCN(c2ccc(O)cn2)CC1 [I.82] and report it.
Result: > 90%

Task: Find the recorded inhibition at 10 µM belonging to O=C(Cc1cc(F)c(F)c(F)c1)N1CCN(c2ccc(O)cc2)CC1 [I.171] and report it.
Result: > 90%

Task: Find the recorded inhibition at 10 µM belonging to O=C(c1c2ccccc2nc2ccccc12)N1CCN(c2ccc(O)cc2)CC1 [I.9] and report it.
Result: > 90%

Task: Find the recorded inhibition at 10 µM belonging to O=C(CCc1ccc(C(F)(F)F)cc1)N1CCN(c2ccc(O)cn2)CC1 [I.139] and report it.
Result: > 90%
